System: HCI-010 (organoid from a breast cancer xenograft)
Assay: CTG-3D luminescence at 96 h relative to day-0 seeding control (ratio to day 0); higher = more growth / less cytotoxicity; PDxO 3D drug screen, 96 h, CTG-3D normalised to day-0 seeding control.
Conditions: 100 µM; days in culture: 103
Quantity: CTG-3D luminescence at 96 h
Enter a number only.

So what does the record say about CTG-3D luminescence at 96 h for Cc1nc(-c2cn3c(n2)-c2ccc(-c4cnn(C(C)(C)C(N)=O)c4)cc2OCC3)n(C(C)C)n1 ?
0.0169

So what does the record say about CTG-3D luminescence at 96 h for CC(C)n1nc(-c2ccc3oc(N)nc3c2)c2c(N)ncnc21 ?
-0.00132

So what does the record say about CTG-3D luminescence at 96 h for CN(Cc1cnc2nc(N)nc(N)c2n1)c1ccc(C(=O)N[C@@H](CCC(=O)O)C(=O)O)cc1 [methotrexate] ?
1.84

So what does the record say about CTG-3D luminescence at 96 h for Nc1ccn([C@@H]2O[C@H](CO)[C@@H](O)C2(F)F)c(=O)n1 ?
0.123

---

System: HCI-024 (organoid from a breast cancer xenograft)
Test: CTG-3D luminescence at 96 h relative to day-0 seeding control (ratio to day 0); higher = more growth / less cytotoxicity; PDxO 3D drug screen, 96 h, CTG-3D normalised to day-0 seeding control.
Conditions: 0.005 µM; days in culture: 105
Quantity: CTG-3D luminescence at 96 h
Enter a number only.

So what does the record say about CTG-3D luminescence at 96 h for NC(=O)Nc1cc(-c2cccc(F)c2)sc1C(=O)N[C@H]1CCCNC1 ?
1.42

So what does the record say about CTG-3D luminescence at 96 h for CCc1c2c(nc3ccc(O)cc13)-c1cc3c(c(=O)n1C2)COC(=O)[C@]3(O)CC ?
1.1

So what does the record say about CTG-3D luminescence at 96 h for CC(C)n1nc(-c2ccc3oc(N)nc3c2)c2c(N)ncnc21 ?
1.16

So what does the record say about CTG-3D luminescence at 96 h for C=CC(=O)N1CCC[C@@H](n2nc(-c3ccc(Oc4ccccc4)cc3)c3c(N)ncnc32)C1 ?
1.35

So what does the record say about CTG-3D luminescence at 96 h for CCN1CCN(Cc2ccc(Nc3ncc(F)c(-c4cc(F)c5nc(C)n(C(C)C)c5c4)n3)nc2)CC1 ?
1.28

So what does the record say about CTG-3D luminescence at 96 h for Cc1cc(Nc2ncc(Cl)c(Nc3ccccc3S(=O)(=O)C(C)C)n2)c(OC(C)C)cc1C1CCNCC1 ?
1.22

So what does the record say about CTG-3D luminescence at 96 h for NC1(C(=O)N[C@@H](CCO)c2ccc(Cl)cc2)CCN(c2nc[nH]c3nccc2-3)CC1 ?
1.39

So what does the record say about CTG-3D luminescence at 96 h for O=C(c1ccc(F)c(F)c1Nc1ccc(I)cc1F)N1CC(O)([C@@H]2CCCCN2)C1 ?
1.38

So what does the record say about CTG-3D luminescence at 96 h for O=C(/C=C/c1cccnc1)NCCCCC1CCN(C(=O)c2ccccc2)CC1 ?
0.265

So what does the record say about CTG-3D luminescence at 96 h for Nc1ccn([C@@H]2O[C@H](CO)[C@@H](O)C2(F)F)c(=O)n1 ?
1.43

---

Test system: HCI-023 (organoid from a triple-negative breast cancer xenograft)
Test: CTG-3D luminescence at 96 h relative to day-0 seeding control (ratio to day 0); higher = more growth / less cytotoxicity; PDxO 3D drug screen, 96 h, CTG-3D normalised to day-0 seeding control.
Conditions: 0.1 µM; days in culture: 128
Quantity: CTG-3D luminescence at 96 h
Enter a number only.

So what does the record say about CTG-3D luminescence at 96 h for O=C(c1ccc(F)c(F)c1Nc1ccc(I)cc1F)N1CC(O)([C@@H]2CCCCN2)C1 ?
1.63

So what does the record say about CTG-3D luminescence at 96 h for Cc1cc(Nc2ncnc3ccc(NC4=NC(C)(C)CO4)cc23)ccc1Oc1ccn2ncnc2c1 ?
2.03

So what does the record say about CTG-3D luminescence at 96 h for CCN1CCN(Cc2ccc(Nc3ncc(F)c(-c4cc(F)c5nc(C)n(C(C)C)c5c4)n3)nc2)CC1 ?
1.52

So what does the record say about CTG-3D luminescence at 96 h for C=CCn1c(=O)c2cnc(Nc3ccc(N4CCN(C)CC4)cc3)nc2n1-c1cccc(C(C)(C)O)n1 ?
1.47

So what does the record say about CTG-3D luminescence at 96 h for O=C(/C=C/c1cccnc1)NCCCCC1CCN(C(=O)c2ccccc2)CC1 ?
0.153

So what does the record say about CTG-3D luminescence at 96 h for COc1cccc2c1C(=O)c1c(O)c3c(c(O)c1C2=O)C[C@@](O)(C(=O)CO)C[C@@H]3O[C@H]1C[C@H](N)[C@H](O)[C@H](C)O1 ?
1.33

All values here come from the supplement of paper PMC8882468.
